Provide the reported AC50 of each item.
Target: Muscarinic acetylcholine receptor M2 (Homo sapiens, UniProt P08172); further: assay procedure not described here
Sequence (P08172 whole entry): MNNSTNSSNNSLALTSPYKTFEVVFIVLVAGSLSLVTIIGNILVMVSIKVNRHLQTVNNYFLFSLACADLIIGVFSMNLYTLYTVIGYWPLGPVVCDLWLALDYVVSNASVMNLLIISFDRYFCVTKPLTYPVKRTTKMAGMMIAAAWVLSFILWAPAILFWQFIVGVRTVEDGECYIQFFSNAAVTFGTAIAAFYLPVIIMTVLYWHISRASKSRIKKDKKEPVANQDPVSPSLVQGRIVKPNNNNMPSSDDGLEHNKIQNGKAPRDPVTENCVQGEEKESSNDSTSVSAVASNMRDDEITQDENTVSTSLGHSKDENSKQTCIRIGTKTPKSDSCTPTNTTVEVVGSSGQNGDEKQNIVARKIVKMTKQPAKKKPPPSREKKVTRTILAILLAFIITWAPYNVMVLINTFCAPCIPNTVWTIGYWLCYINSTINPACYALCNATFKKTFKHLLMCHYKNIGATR
Format: functional, cell-based

Request: Give a short answer stating reported AC50 for COC(=O)C1=C(C)NC(C)=C(C(=O)OC(C)(C)CN(C)CCC(c2ccccc2)c2ccccc2)C1c1cccc([N+](=O)[O-])c1 (centres undefined) .
Result: > 30 µM

Request: Give a short answer stating reported AC50 for "COc1ccc(CC(C)(C)NC[C@H](O)c2cc(O)cc3c2OCC(=O)N3)cc1" .
Result: 5.1 µM

Request: Give a short answer stating reported AC50 for O=[N+]([O-])O[C@@H]1CO[C@H]2[C@@H]1OC[C@@H]2O [ISOSORBIDE MONONITRATE] .
Result: > 10 µM

Request: Give a short answer stating reported AC50 for C=CCN1CCCC1CNC(=O)c1cc(S(N)(=O)=O)cc(OC)c1OC (centres undefined) [VERALIPRIDE] .
Result: > 30 µM

Request: Give a short answer stating reported AC50 for "Nc1nc(NC2CC2)c2ncn([C@H]3C=C[C@@H](CO)C3)c2n1" .
Result: > 30 µM

Request: Give a short answer stating reported AC50 for "Cc1cc(C)c(NC(=O)CN(CC(=O)O)CC(=O)O)c(C)c1Br" .
Result: > 30 µM

Request: Give a short answer stating reported AC50 for "Cn1c(=O)c2c(ncn2CC2OCCO2)n(C)c1=O" .
Result: > 30 µM

Request: Give a short answer stating reported AC50 for NCC(CC(=O)O)c1ccc(Cl)cc1 (centres undefined) .
Result: > 30 µM

Request: Give a short answer stating reported AC50 for "O=C(O[C@H]1C[C@H]2CC[C@@H](C1)[N+]21CCCC1)C(O)(c1ccccc1)c1ccccc1" .
Result: 0.0061 µM

====

Target: Histamine H2 receptor (Homo sapiens); further: assay procedure not described here
Sequence (P25021 whole entry): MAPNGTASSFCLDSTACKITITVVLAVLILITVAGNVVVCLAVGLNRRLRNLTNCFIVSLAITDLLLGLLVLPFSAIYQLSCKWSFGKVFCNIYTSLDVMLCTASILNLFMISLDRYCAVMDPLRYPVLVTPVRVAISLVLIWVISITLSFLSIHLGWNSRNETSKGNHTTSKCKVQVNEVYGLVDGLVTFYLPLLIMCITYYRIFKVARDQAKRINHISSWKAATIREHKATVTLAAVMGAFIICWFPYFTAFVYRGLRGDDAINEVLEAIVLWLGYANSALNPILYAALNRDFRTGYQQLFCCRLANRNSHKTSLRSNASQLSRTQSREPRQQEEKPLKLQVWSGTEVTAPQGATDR
Type: functional, cell-based
assay-readout: AC50

Request: Give a short answer stating reported AC50 for "C[C@]12CC[C@H]3[C@@H](CCC4=CC(=O)CC[C@@]43C)[C@@H]1CC[C@@H]2O" .
Result: > 30 µM

Request: Give a short answer stating reported AC50 for C=CCc1ccccc1OCC(O)CNC(C)C (centres undefined) .
Result: > 30 µM

Request: Give a short answer stating reported AC50 for CC(Oc1c(Cl)cccc1Cl)C1=NCCN1 (centres undefined) .
Result: > 30 µM

Request: Give a short answer stating reported AC50 for "CNS(=O)(=O)Cc1ccc2[nH]cc(CCN(C)C)c2c1" .
Result: > 30 µM

Request: Give a short answer stating reported AC50 for "CC(C)C(=O)c1c(C(C)C)nn2ccccc12" .
Result: > 30 µM

Request: Give a short answer stating reported AC50 for "CCOC(=O)[C@H](CCc1ccccc1)N[C@@H](C)C(=O)N1[C@H](C(=O)O)C[C@@H]2CCC[C@@H]21" .
Result: > 10 µM

Request: Give a short answer stating reported AC50 for "COC(=O)[C@H]1[C@H]2C[C@@H]3c4[nH]c5cc(OC)ccc5c4CCN3C[C@H]2C[C@@H](OC(=O)/C=C/c2cc(OC)c(OC)c(OC)c2)[C@@H]1OC" .
Result: > 30 µM

Request: Give a short answer stating reported AC50 for NC(=O)CN1CC(O)CC1=O (centres undefined) .
Result: > 30 µM

Request: Give a short answer stating reported AC50 for "C#C[C@]1(O)CC[C@H]2[C@@H]3CCc4cc(OC5CCCC5)ccc4[C@H]3CC[C@@]21C" .
Result: > 10 µM

====

Provide the reported AC50 of each item.
Molecular target: Beta-1 adrenergic receptor (Homo sapiens); further: assay procedure not described here
Sequence (P08588 whole entry): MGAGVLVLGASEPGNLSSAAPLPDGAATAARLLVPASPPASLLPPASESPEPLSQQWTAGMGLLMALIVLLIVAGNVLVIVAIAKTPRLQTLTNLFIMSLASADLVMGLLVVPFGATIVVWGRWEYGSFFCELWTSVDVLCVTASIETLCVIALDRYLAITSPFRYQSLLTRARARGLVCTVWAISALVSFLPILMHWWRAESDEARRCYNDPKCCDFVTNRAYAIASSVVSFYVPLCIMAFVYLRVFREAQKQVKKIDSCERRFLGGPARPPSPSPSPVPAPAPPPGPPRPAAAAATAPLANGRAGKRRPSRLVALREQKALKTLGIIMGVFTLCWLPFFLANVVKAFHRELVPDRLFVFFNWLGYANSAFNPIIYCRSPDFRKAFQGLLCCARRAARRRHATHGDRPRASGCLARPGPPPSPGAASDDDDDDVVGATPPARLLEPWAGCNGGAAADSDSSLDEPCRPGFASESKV
Type: functional

Request: Give a short answer stating reported AC50 for CO/N=C(\C(=O)N[C@@H]1C(=O)N2C(C(=O)O)=C(CSc3nnnn3C)CS[C@H]12)c1csc(N)n1 [CEFMENOXIME] .
Result: > 30 µM

Request: Give a short answer stating reported AC50 for CC(=O)NCCCS(=O)(=O)O [ACAMPROSATE] .
Result: > 30 µM

Request: Give a short answer stating reported AC50 for O=C(OCC(O)CO)c1ccccc1Nc1ccnc2cc(Cl)ccc12 (stereo not drawn) [GLAFENINE] .
Result: > 30 µM

Request: Give a short answer stating reported AC50 for CO[C@@H]1[C@@H](O[C@@H]2O[C@H](C)[C@@H](O[C@H]3C[C@@](C)(O)[C@@H](OC(=O)CC(C)C)[C@H](C)O3)[C@H](N(C)C)[C@H]2O)[C@@H](CC=O)C[C@@H](C)[C@@H](O)/C=C/C=C/C[C@@H](C)OC(=O)C[C@H]1OC(C)=O [JOSAMYCIN] .
Result: > 10 µM

Request: Give a short answer stating reported AC50 for C[C@H](CSC(=O)c1ccccc1)C(=O)N1C[C@@H](Sc2ccccc2)C[C@H]1C(=O)O [ZOFENOPRIL] .
Result: > 10 µM

Request: Give a short answer stating reported AC50 for CC(CC(c1ccccc1)c1ccccc1)NC(C)(C)C (stereo not drawn) [TERODILINE] .
Result: > 30 µM

Request: Give a short answer stating reported AC50 for NC(=O)OCC(COC(N)=O)c1ccccc1 [FELBAMATE] .
Result: > 10 µM

Request: Give a short answer stating reported AC50 for C[C@H]1CNCCc2ccc(Cl)cc21 [LORCASERIN] .
Result: 8.3 µM

====

Target: cGMP-inhibited 3',5'-cyclic phosphodiesterase 3A (Homo sapiens, UniProt Q14432); further: assay procedure not described here
Sequence (Q14432 whole entry): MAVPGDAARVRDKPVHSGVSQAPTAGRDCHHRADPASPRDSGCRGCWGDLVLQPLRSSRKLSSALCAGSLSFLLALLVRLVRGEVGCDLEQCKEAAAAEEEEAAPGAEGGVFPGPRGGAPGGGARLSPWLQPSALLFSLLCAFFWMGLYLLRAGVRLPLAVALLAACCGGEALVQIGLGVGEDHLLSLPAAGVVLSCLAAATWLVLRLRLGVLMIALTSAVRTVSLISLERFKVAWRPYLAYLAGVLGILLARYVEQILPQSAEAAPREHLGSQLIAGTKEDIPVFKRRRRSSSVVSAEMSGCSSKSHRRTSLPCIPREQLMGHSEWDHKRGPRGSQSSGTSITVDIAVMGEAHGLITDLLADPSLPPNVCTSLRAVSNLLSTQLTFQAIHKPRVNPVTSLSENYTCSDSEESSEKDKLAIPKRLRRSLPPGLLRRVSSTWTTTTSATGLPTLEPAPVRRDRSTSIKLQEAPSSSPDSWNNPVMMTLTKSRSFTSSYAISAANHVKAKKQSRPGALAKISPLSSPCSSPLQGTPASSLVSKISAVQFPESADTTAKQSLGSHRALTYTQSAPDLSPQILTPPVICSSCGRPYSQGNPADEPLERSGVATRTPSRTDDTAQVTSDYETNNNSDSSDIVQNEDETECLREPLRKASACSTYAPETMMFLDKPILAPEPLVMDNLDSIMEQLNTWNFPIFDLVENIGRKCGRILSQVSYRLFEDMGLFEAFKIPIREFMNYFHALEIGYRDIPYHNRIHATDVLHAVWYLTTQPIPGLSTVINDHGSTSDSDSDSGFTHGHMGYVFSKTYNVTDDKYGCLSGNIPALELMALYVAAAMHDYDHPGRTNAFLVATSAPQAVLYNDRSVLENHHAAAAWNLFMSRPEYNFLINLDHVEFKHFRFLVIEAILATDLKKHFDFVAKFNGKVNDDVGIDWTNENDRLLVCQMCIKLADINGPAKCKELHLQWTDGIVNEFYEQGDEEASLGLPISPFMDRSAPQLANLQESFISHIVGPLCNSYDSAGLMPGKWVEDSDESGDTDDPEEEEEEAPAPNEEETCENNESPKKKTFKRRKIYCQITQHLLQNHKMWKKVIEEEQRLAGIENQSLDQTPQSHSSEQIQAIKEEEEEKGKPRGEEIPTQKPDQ
Type: functional
Provide the reported AC50 of each item.

Request: Using cGMP-inhibited 3',5'-cyclic phosphodiesterase 3A (Homo sapiens, UniProt Q14432) as the test system, report measured AC50 of "O=C(O)CCCCCCCC(=O)O" .
Result: > 30 µM

Request: Using cGMP-inhibited 3',5'-cyclic phosphodiesterase 3A (Homo sapiens, UniProt Q14432) as the test system, report measured AC50 of COc1ccccc1OCCNCC(O)c1ccc(C)c(S(N)(=O)=O)c1 (stereo not drawn) .
Result: > 10 µM

Request: Using cGMP-inhibited 3',5'-cyclic phosphodiesterase 3A (Homo sapiens, UniProt Q14432) as the test system, report measured AC50 of "C[C@]1(O)CC[C@H]2[C@@H]3CCC4=CC(=O)CC[C@]4(C)[C@@]3(F)[C@@H](O)C[C@@]21C" .
Result: > 30 µM

Request: Using cGMP-inhibited 3',5'-cyclic phosphodiesterase 3A (Homo sapiens, UniProt Q14432) as the test system, report measured AC50 of "CCCCc1ncc(/C=C(\Cc2cccs2)C(=O)O)n1Cc1ccc(C(=O)O)cc1" .
Result: > 10 µM

Request: Using cGMP-inhibited 3',5'-cyclic phosphodiesterase 3A (Homo sapiens, UniProt Q14432) as the test system, report measured AC50 of CCCC(=O)O[C@]1(C(=O)CO)CC[C@H]2[C@@H]3CCC4=CC(=O)CC[C@]4(C)[C@H]3[C@@H](O)C[C@@]21C [HYDROCORTISONE BUTYRATE] .
Result: > 30 µM

Request: Using cGMP-inhibited 3',5'-cyclic phosphodiesterase 3A (Homo sapiens, UniProt Q14432) as the test system, report measured AC50 of O=C(NCCN1CCOCC1)c1ccc(Cl)cc1 [MOCLOBEMIDE] .
Result: > 30 µM

Request: Using cGMP-inhibited 3',5'-cyclic phosphodiesterase 3A (Homo sapiens, UniProt Q14432) as the test system, report measured AC50 of "C[C@](N)(Cc1ccc(O)c(O)c1)C(=O)O" .
Result: > 30 µM

Request: Using cGMP-inhibited 3',5'-cyclic phosphodiesterase 3A (Homo sapiens, UniProt Q14432) as the test system, report measured AC50 of COCCCN1CCC(NC(=O)c2cc(Cl)c(N)c3c2OCC3)CC1 [PRUCALOPRIDE] .
Result: > 30 µM

Request: Using cGMP-inhibited 3',5'-cyclic phosphodiesterase 3A (Homo sapiens, UniProt Q14432) as the test system, report measured AC50 of "Nc1nc(NC2CC2)c2ncn([C@H]3C=C[C@@H](CO)C3)c2n1" .
Result: > 30 µM

Request: Using cGMP-inhibited 3',5'-cyclic phosphodiesterase 3A (Homo sapiens, UniProt Q14432) as the test system, report measured AC50 of C[C@]12CCC(=O)C=C1CC[C@@H]1[C@@H]2[C@@H](O)C[C@@]2(C)[C@H]1CC[C@]2(O)C(=O)CO [HYDROCORTISONE] .
Result: > 30 µM

Request: Using cGMP-inhibited 3',5'-cyclic phosphodiesterase 3A (Homo sapiens, UniProt Q14432) as the test system, report measured AC50 of CCC(C)n1ncn(-c2ccc(N3CCN(c4ccc(OCC5COC(Cn6cncn6)(c6ccc(Cl)cc6Cl)O5)cc4)CC3)cc2)c1=O (stereo not drawn) .
Result: > 30 µM

Request: Using cGMP-inhibited 3',5'-cyclic phosphodiesterase 3A (Homo sapiens, UniProt Q14432) as the test system, report measured AC50 of CN1C(=O)C(O)N=C(c2ccccc2Cl)c2cc(Cl)ccc21 (stereo not drawn) .
Result: > 10 µM

Request: Using cGMP-inhibited 3',5'-cyclic phosphodiesterase 3A (Homo sapiens, UniProt Q14432) as the test system, report measured AC50 of "C[C@]12CC[C@H]3[C@@H](CCC4=CC(=O)CC[C@@]43C)[C@@H]1CC[C@@H]2O" .
Result: > 30 µM

Request: Using cGMP-inhibited 3',5'-cyclic phosphodiesterase 3A (Homo sapiens, UniProt Q14432) as the test system, report measured AC50 of CCC1(CC)C(=O)NCC(C)C1=O (stereo not drawn) .
Result: > 30 µM

Request: Using cGMP-inhibited 3',5'-cyclic phosphodiesterase 3A (Homo sapiens, UniProt Q14432) as the test system, report measured AC50 of "CN1CCN(C2=Nc3ccccc3Sc3ccc(Cl)cc32)CC1" .
Result: > 30 µM

Request: Using cGMP-inhibited 3',5'-cyclic phosphodiesterase 3A (Homo sapiens, UniProt Q14432) as the test system, report measured AC50 of CCCN1C[C@H](CSC)C[C@@H]2c3cccc4[nH]cc(c34)C[C@H]21 [PERGOLIDE] .
Result: > 30 µM

Request: Using cGMP-inhibited 3',5'-cyclic phosphodiesterase 3A (Homo sapiens, UniProt Q14432) as the test system, report measured AC50 of "Cc1nc([N+](=O)[O-])cn1-c1ccc([N+](=O)[O-])cc1" .
Result: > 30 µM

Request: Using cGMP-inhibited 3',5'-cyclic phosphodiesterase 3A (Homo sapiens, UniProt Q14432) as the test system, report measured AC50 of "CS(=O)(=O)c1ccc(C2=C(c3ccccc3)C(=O)OC2)cc1" .
Result: > 30 µM

Data origin: ChEMBL document CHEMBL5291721
